assay: ATG_NFI_CIS: Attagene CIS-FACTORIAL HepG2 Assay for human Nuclear Factor I (NFI) (AID 2282989); conditions: HepG2 cis-regulatory reporter, NFI response element transcription; actives raise or lower the signal
Active and inactive are the calls of the source. Rule for the calls: active = hit-call score of the fitted dose curve at least 0.9, where 1 is the maximum; inactive = score below 0.9.
// allowed return values: yes (1) for active, no (0) for inactive

Take a look at these entries with their results.
[
  {
    "MOLECULE": "CCOC(C)=O",
    "CAT": "no (0)"
  },
  {
    "MOLECULE": "C[C@]12CC[C@@H]3c4ccc(O)cc4CC[C@H]3[C@@H]1C[C@@H](O)[C@@H]2O",
    "CAT": "no (0)"
  },
  {
    "MOLECULE": "COc1ccccc1NC(=O)c1cc2ccccc2cc1O",
    "CAT": "yes (1)"
  },
  {
    "MOLECULE": "Clc1ccc(Nc2nnc(Cc3ccncc3)c3ccccc23)cc1",
    "CAT": "no (0)"
  },
  {
    "MOLECULE": "CCOCCOCC",
    "CAT": "no (0)"
  }
]

As a next step, examine the molecule that follows.
Ask: Outcome logged for `O=C(Nc1ccc(Cl)c(Cl)c1)c1cc(Cl)cc(Cl)c1O` in this assay:
Reply: no (0)
